Overview of recorded inhibition for various molecules
Molecular target: Serine/threonine-protein kinase 26 (Homo sapiens);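 further: mean inhibition of MST4 kinase activity, reported from the GSK PKIS inhibitor-set screening panel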
Conditions: at 1 µM
Dear colleague, please return just the value in %, with no unit written.

Some molecules with recorded inhibition:
> print(dat)
                                   molecule  observed.measurement
1  CS(=O)(=O)Nc1ccc(N/C=C2\C(=O)Nc3ccccc32)cc1                 -0.36
2       Cn1cc(C=C2C(=O)Nc3cccnc32)c2ccccc21                   1.1
3  COc1cc2ncn(-c3cc(O[C@@H](C)c4ccccc4Cl)c(C(N)=O)s3)c2cc1OC                  -7.1
4      CNC(=O)c1cncc(/C=C/c2c(Cl)cccc2Cl)c1                 -0.15
5  CN(C)c1cc2c(Nc3ccc4nc(Cc5ccccc5)[nH]c4c3)ncnc2cn1                 -0.63
6  Cc1nnc(-c2ccc(C)c(-c3ccc(C(=O)Nc4cccc(C#N)c4)cc3)c2)o1                 -0.56
7     Cc1cccc(-c2n[nH]cc2-c2ccc3ncccc3n2)n1                  2.02
8  CC1=C(C(=O)Nc2ccc3[nH]ncc3c2)C(c2ccc3ccccc3c2)CC(=O)N1 (stereo not given)                 -3.47

Consider the molecule shown here: Nc1nc(-c2ccccn2)c(-c2ccc3ncccc3n2)s1 What is its recorded inhibition? -0.98
